Source listed as the supplement of paper PMC10126150.

Tested on: ATP;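 also: ATP exposure 15 min at 22 °C before imaging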
Test: switch fluorescence ratio, 500 uM ATP over buffer (Cy3 cluster intensity, sum of 5 cycles each) (fold (ratio)); higher = stronger signal-on switching upon ATP binding; sequences stand for … in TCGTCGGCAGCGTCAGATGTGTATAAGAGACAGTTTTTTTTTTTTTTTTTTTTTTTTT…TC
Conditions: aptamer strand: ATP DNA aptamer (quencher-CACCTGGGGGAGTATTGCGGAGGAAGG + anchor), 100 nM annealed; ATP concentration: 500 uM
EXPERIMENTAL ENDPOINT: switch fluorescence ratio
Number only, no unit.

# INPUT SEQUENCE, switch fluorescence ratio
records = [
    ("TTGTTACGGA", 1.01),
    ("TTGGAGCACT", 1.38),
    ("ACCAGGGACG", 1.02),
    ("AGGAGTAGTC", 0.996),
    ("TCACGCTTGA", 1.05),
]

Sample AGATAACAGG ; switch fluorescence ratio observed: 1.01

Sample TTTGCTAGTT ; switch fluorescence ratio observed: 0.988

Sample CGGCGGGTGG ; switch fluorescence ratio observed: 1.02

Sample TAATTGAAGA ; switch fluorescence ratio observed: 0.971

----------
In this section, each of the sequences is paired with its reported switch fluorescence ratio.
Test system: ATP;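 also: ATP exposure 15 min at 22 °C before imaging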
Assay: switch fluorescence ratio, 500 uM ATP over buffer (Cy3 cluster intensity, sum of 5 cycles each) (fold (ratio)); higher = stronger signal-on switching upon ATP binding; sequences stand for … in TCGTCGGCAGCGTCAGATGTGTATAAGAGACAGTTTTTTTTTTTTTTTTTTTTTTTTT…TC
Details: aptamer strand: ATP DNA aptamer (quencher-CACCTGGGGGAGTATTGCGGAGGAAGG + anchor), 100 nM annealed; ATP concentration: 500 uM

The examples below pair each entry with its known result.
# INPUT SEQUENCE, switch fluorescence ratio
records = [
    ("GGTGGCTTTT", 1.02),
    ("GGGCACGTCG", 0.989),
]

Sample GTTAGGGGGT ; switch fluorescence ratio observed: 0.994

Sample GTTGAGGGA ; switch fluorescence ratio observed: 1.04

----------
System: ATP;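 also: ATP exposure 15 min at 22 °C before imaging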
Experiment: switch fluorescence ratio, 500 uM ATP over buffer (Cy3 cluster intensity, sum of 5 cycles each) (fold (ratio)); higher = stronger signal-on switching upon ATP binding; sequences stand for … in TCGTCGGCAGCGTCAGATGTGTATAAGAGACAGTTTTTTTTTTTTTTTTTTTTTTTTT…TC
Conditions: aptamer strand: ATP DNA aptamer (quencher-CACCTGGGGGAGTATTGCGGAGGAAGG + anchor), 100 nM annealed; ATP concentration: 500 uM
In this section, each of the sequences is paired with its reported switch fluorescence ratio.
Number only, no unit.

The examples below pair each entry with its known result.
# INPUT SEQUENCE, switch fluorescence ratio
data = [
    ("CAGGTTTGG", 0.982),
    ("GGGGACGTTT", 1.03),
    ("CGTGATAAGT", 1.02),
    ("CATTTGGTCC", 1.01),
]

Sample TACGATACAC ; switch fluorescence ratio observed: 1.44

Sample ATATTGTTTG ; switch fluorescence ratio observed: 1.01

Sample ATGTAAAAAC ; switch fluorescence ratio observed: 0.965

----------
Test system: ATP;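 also: ATP exposure 15 min at 22 °C before imaging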
Experiment: switch fluorescence ratio, 500 uM ATP over buffer (Cy3 cluster intensity, sum of 5 cycles each) (fold (ratio)); higher = stronger signal-on switching upon ATP binding; sequences stand for … in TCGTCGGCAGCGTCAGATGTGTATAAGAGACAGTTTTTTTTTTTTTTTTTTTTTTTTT…TC
Settings: aptamer strand: ATP DNA aptamer (quencher-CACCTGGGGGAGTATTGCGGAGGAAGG + anchor), 100 nM annealed; ATP concentration: 500 uM
Note to self: values exactly at 1 are 1. So switch fluorescence ratio at or above 1 is 1, below is -1.

# INPUT SEQUENCE, CLASS ASSIGNMENT
measured = [
    ("GATGGCGTGG", -1),
]

Quick check: does ACGGACATCT have switch fluorescence ratio greater than or equal to 1? 1

Quick check: does GACGTTTTGC have switch fluorescence ratio greater than or equal to 1? 1

Quick check: does GTTTCATGGG have switch fluorescence ratio greater than or equal to 1? -1
